test system: primary AML patient cells (S056); assay: viability relative to DMSO control (fraction); higher = less drug effect (more viable cells); details: 0.2 µM; 48 h
Answer each item with its documented viability.
Give the figure only, with no unit attached.

Lookup: Check the records and state viability for O=C1c2c(O)ccc(O)c2C(=O)c2c(NCCNCCO)ccc(NCCNCCO)c21
Found: 0.128

Lookup: Check the records and state viability for CCc1cnn2c(NCc3ccc[n+]([O-])c3)cc(N3CCCC[C@H]3CCO)nc12
Found: 0.0868

Lookup: Check the records and state viability for CC#CC(=O)N1CCC[C@H]1c1nc(-c2ccc(C(=O)Nc3ccccn3)cc2)c2c(N)nccn12
Found: 1.02

Lookup: Check the records and state viability for Nc1cccc2c1CN(C1CCC(=O)NC1=O)C2=O (centres undefined) [Lenalidomide]
Found: 0.961

----------
system: primary AML patient cells (S091); test: viability relative to DMSO control (fraction); higher = less drug effect (more viable cells); conditions: 0.12 µM; 48 h
Answer each item with its documented viability.
Give the figure only, with no unit attached.

Lookup: Check the records and state viability for Nc1nc(=S)c2[nH]cnc2[nH]1 [Thioguanin]
Found: 0.817

Lookup: Check the records and state viability for Nc1nc(Cl)nc2c1ncn2[C@@H]1O[C@H](CO)[C@@H](O)[C@@H]1F [Clofarabine]
Found: 0.527

Lookup: Check the records and state viability for O=C(Nc1cccc(C(F)(F)F)c1)Nc1cc(S(=O)(=O)NC2CC2)ccc1-c1ccsc1 [AGI-6780]
Found: 1.05

Lookup: Check the records and state viability for O=C(O)CSc1cc(NS(=O)(=O)c2ccc(Br)cc2)c2ccccc2c1O [UMI-77]
Found: 1.03

Lookup: Check the records and state viability for CS(=O)(=O)c1ccc(C(=O)Nc2ccc(Cl)c(-c3ccccn3)c2)c(Cl)c1 [Vismodegib]
Found: 0.901

Lookup: Check the records and state viability for Oc1ccc(/C=C/c2cc(O)cc(O)c2)cc1 [Resveratrol]
Found: 0.832

----------
system: primary AML patient cells (S037); test: viability relative to DMSO control (fraction); higher = less drug effect (more viable cells); conditions: 0.008 µM; 48 h
measurement_type: viability
Give the figure only, with no unit attached.

Lookup: Check the records and state viability for COc1cccc2c1C(=O)c1c(O)c3c(c(O)c1C2=O)C[C@@](O)(C(C)=O)C[C@@H]3O[C@H]1C[C@H](N)[C@H](O)[C@H](C)O1
Found: 1.02

Lookup: Check the records and state viability for Nc1ccc2ncnc(NCCc3ccc(Oc4ccccc4)cc3)c2c1
Found: 0.943

Lookup: Check the records and state viability for Cc1nc(Nc2ncc(C(=O)Nc3c(C)cccc3Cl)s2)cc(N2CCN(CCO)CC2)n1
Found: 1.01

Lookup: Check the records and state viability for CC(C)(C)C[C@@H]1N[C@@H](C(=O)N[C@H]2CC[C@H](O)CC2)[C@H](c2cccc(Cl)c2F)[C@]12C(=O)Nc1cc(Cl)ccc12
Found: 1.04

Lookup: Check the records and state viability for Nc1cccc2c1CN(C1CCC(=O)NC1=O)C2=O (stereo not given) [Lenalidomide]
Found: 1.03

----------
test system: primary AML patient cells (S072); test: viability relative to DMSO control (fraction); higher = less drug effect (more viable cells); settings: 0.6 µM; 48 h
measurement_type: viability

Lookup: Please report viability with primary AML patient cells (S072) for item CNC(=O)c1cc(Oc2ccc(NC(=O)Nc3ccc(Cl)c(C(F)(F)F)c3)cc2)ccn1 .
Found: 0.99

Lookup: Please report viability with primary AML patient cells (S072) for item O=C(O)CSc1cc(NS(=O)(=O)c2ccc(Br)cc2)c2ccccc2c1O .
Found: 0.94

Lookup: Please report viability with primary AML patient cells (S072) for item O=C(Nc1cccc(C(F)(F)F)c1)Nc1cc(S(=O)(=O)NC2CC2)ccc1-c1ccsc1 .
Found: 0.884

Lookup: Please report viability with primary AML patient cells (S072) for item Nc1ncn([C@H]2C[C@H](O)[C@@H](CO)O2)c(=O)n1 .
Found: 0.964

----------
system: primary AML patient cells (S085); test: viability relative to DMSO control (fraction); higher = less drug effect (more viable cells); details: 0.12 µM; 48 h
measurement_type: viability
Give the figure only, with no unit attached.

Lookup: Check the records and state viability for Nc1ncn([C@H]2C[C@H](O)[C@@H](CO)O2)c(=O)n1
Found: 0.904

Lookup: Check the records and state viability for N#Cc1ccnc(N2C(=O)CC[C@H]2C(=O)N(c2cncc(F)c2)[C@H](C(=O)NC2CC(F)(F)C2)c2ccccc2Cl)c1
Found: 1

Lookup: Check the records and state viability for CCc1nc(C(N)=O)c(Nc2ccc(N3CCC(N4CCN(C)CC4)CC3)c(OC)c2)nc1NC1CCOCC1
Found: 0.98

Lookup: Check the records and state viability for O=C(O)CSc1cc(NS(=O)(=O)c2ccc(Br)cc2)c2ccccc2c1O
Found: 1.07

----------
tested on: primary AML patient cells (S079); assay: viability relative to DMSO control (fraction); higher = less drug effect (more viable cells); settings: 0.04 µM; 48 h
Answer each item with its documented viability.
Give the figure only, with no unit attached.

Lookup: Check the records and state viability for COc1cccc2c1C(=O)c1c(O)c3c(c(O)c1C2=O)C[C@@](O)(C(C)=O)C[C@@H]3O[C@H]1C[C@H](N)[C@H](O)[C@H](C)O1
Found: 0.78

Lookup: Check the records and state viability for Nc1cccc2c1CN(C1CCC(=O)NC1=O)C2=O (stereo unspecified) [Lenalidomide]
Found: 1.02

Lookup: Check the records and state viability for C=CC(=O)N1CCC[C@@H](n2nc(-c3ccc(Oc4ccccc4)cc3)c3c(N)ncnc32)C1
Found: 0.879

Lookup: Check the records and state viability for Cc1nc(Nc2ncc(C(=O)Nc3c(C)cccc3Cl)s2)cc(N2CCN(CCO)CC2)n1
Found: 0.863

Lookup: Check the records and state viability for C/C=C1\NC(=O)[C@H]2CSSCC/C=C/[C@H](CC(=O)N[C@H](C(C)C)C(=O)N2)OC(=O)[C@H](C(C)C)NC1=O
Found: 0.31

Lookup: Check the records and state viability for Nc1ccc2ncnc(NCCc3ccc(Oc4ccccc4)cc3)c2c1
Found: 0.84

----------
Answer each item with its documented viability.
system: primary AML patient cells (S060); assay: viability relative to DMSO control (fraction); higher = less drug effect (more viable cells); settings: 0.008 µM; 48 h
Give the figure only, with no unit attached.

Lookup: Check the records and state viability for Nc1cccc2c1CN(C1CCC(=O)NC1=O)C2=O (centres undefined) [Lenalidomide]
Found: 1.02

Lookup: Check the records and state viability for COc1cccc2c1C(=O)c1c(O)c3c(c(O)c1C2=O)C[C@@](O)(C(=O)CO)C[C@@H]3O[C@H]1C[C@H](N)[C@H](O)[C@H](C)O1
Found: 1.05

Lookup: Check the records and state viability for Nc1ccc2ncnc(NCCc3ccc(Oc4ccccc4)cc3)c2c1
Found: 1.01

Lookup: Check the records and state viability for COc1cccc2c1C(=O)c1c(O)c3c(c(O)c1C2=O)C[C@@](O)(C(C)=O)C[C@@H]3O[C@H]1C[C@H](N)[C@H](O)[C@H](C)O1
Found: 1.14

----------
Answer each item with its documented viability.
tested on: primary AML patient cells (S006); assay: viability relative to DMSO control (fraction); higher = less drug effect (more viable cells); details: 3 µM; 48 h

Lookup: Check the records and state viability for Nc1nc(=S)c2[nH]cnc2[nH]1
Found: 0.202

Lookup: Check the records and state viability for Oc1ccc(/C=C/c2cc(O)cc(O)c2)cc1
Found: 0.872

Lookup: Check the records and state viability for N#CC[C@H](C1CCCC1)n1cc(-c2ncnc3[nH]ccc23)cn1
Found: 0.904

Lookup: Check the records and state viability for O=C(Nc1cccc(C(F)(F)F)c1)Nc1cc(S(=O)(=O)NC2CC2)ccc1-c1ccsc1
Found: 0.974

Lookup: Check the records and state viability for O=C(c1cc(Cc2n[nH]c(=O)c3ccccc23)ccc1F)N1CCN(C(=O)C2CC2)CC1
Found: 0.884

----------
tested on: primary AML patient cells (S091); experiment: viability relative to DMSO control (fraction); higher = less drug effect (more viable cells); details: 0.008 µM; 48 h
measurement_type: viability
Give the figure only, with no unit attached.

Lookup: Check the records and state viability for Nc1cccc2c1CN(C1CCC(=O)NC1=O)C2=O (stereo not drawn) [Lenalidomide]
Found: 1.09

Lookup: Check the records and state viability for O=C1c2c(O)ccc(O)c2C(=O)c2c(NCCNCCO)ccc(NCCNCCO)c21 [Mitoxantrone]
Found: 0.494

Lookup: Check the records and state viability for COc1cccc2c1C(=O)c1c(O)c3c(c(O)c1C2=O)C[C@@](O)(C(C)=O)C[C@@H]3O[C@H]1C[C@H](N)[C@H](O)[C@H](C)O1 [Daunorubicin]
Found: 0.777

----------
test system: primary CLL patient cells (S043); test: viability relative to DMSO control (fraction); higher = less drug effect (more viable cells); details: 15 µM; 48 h
measurement_type: viability
Give the figure only, with no unit attached.

Lookup: Check the records and state viability for N#CC[C@H](C1CCCC1)n1cc(-c2ncnc3[nH]ccc23)cn1
Found: 0.966

Lookup: Check the records and state viability for O=C(O)CSc1cc(NS(=O)(=O)c2ccc(Br)cc2)c2ccccc2c1O
Found: 0.748

Lookup: Check the records and state viability for CS(=O)(=O)c1ccc(C(=O)Nc2ccc(Cl)c(-c3ccccn3)c2)c(Cl)c1
Found: 0.965

Lookup: Check the records and state viability for CCN1CCN(Cc2ccc(Nc3ncc(F)c(-c4cc(F)c5nc(C)n(C(C)C)c5c4)n3)nc2)CC1
Found: 0.24
